- Tgt: T1, murine IL-11 (mouse, UniProt P47873 22-199)
- T1 construct: bought from Invigate; also called mIL-11; mIL11
- T1 sequence: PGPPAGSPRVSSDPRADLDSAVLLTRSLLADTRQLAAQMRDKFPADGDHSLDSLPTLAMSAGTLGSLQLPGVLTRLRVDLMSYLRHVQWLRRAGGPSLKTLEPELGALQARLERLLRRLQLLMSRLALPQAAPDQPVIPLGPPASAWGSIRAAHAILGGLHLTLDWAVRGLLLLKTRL
- Protocol Summary: SPR, antibody captured, IL-11 as analyte
Each entry below lists one item and its recorded Kd value.
Numeric only. Scale: nM

Below are worked cases with known answers.
[[record]]
binder = "TPP-26304 (antibody, V domains shown, constant regions not restated) VH: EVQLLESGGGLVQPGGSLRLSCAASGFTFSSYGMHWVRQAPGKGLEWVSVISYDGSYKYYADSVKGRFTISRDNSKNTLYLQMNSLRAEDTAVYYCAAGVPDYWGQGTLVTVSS VL: QSVLTQPPSASGTPGQRVTISCTGSSSNIWAGYDVHWYQQLPGTAPKLLIYSNNERPSGVPDRFSGSKSGTSASLAISGLRSEDEADYYCAAWDDSLNGPVFGGGTKLTVL"
measured_result = 0.64

[[record]]
binder = "TPP-26291 (antibody, V domains shown, constant regions not restated) VH: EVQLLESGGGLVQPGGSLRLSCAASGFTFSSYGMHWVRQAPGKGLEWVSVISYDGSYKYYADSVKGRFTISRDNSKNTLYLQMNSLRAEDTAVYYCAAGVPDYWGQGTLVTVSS VL: QSVLTQPPSASGTPGQRVTISCTGSSSNIGAGYDVHWYQQLPGTAPKLLIYSNNERPSGVPDRFSGSKSGTSASLAISGLRSEDEADYYCAAWDPSLNGPVFGGGTKLTVL"
measured_result = 0.94

[[record]]
binder = "TPP-26295 (antibody, V domains shown, constant regions not restated) VH: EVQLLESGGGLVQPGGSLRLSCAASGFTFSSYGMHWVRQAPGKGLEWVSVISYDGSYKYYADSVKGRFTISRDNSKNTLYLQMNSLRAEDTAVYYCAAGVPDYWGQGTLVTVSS VL: QSVLTQPPSASGTPGQRVTISCTGSSSNIGAGYDVHWYQQLPGTAPKLLIYSNNERPSGVPDRFSGSKSGTSASLAISGLRSEDEADYYCAAWDHSLNGPVFGGGTKLTVL"
measured_result = 0.65

[[record]]
binder = "TPP-26319 (antibody, V domains shown, constant regions not restated) VH: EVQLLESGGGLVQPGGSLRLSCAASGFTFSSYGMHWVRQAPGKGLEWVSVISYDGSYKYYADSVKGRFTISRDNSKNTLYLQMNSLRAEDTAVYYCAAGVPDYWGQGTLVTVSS VL: QSVLTQPPSASGTPGQRVTISCTGSSSNIGAGYDVHWYQQLPGTAPKLLIYSNNEKPSGVPDRFSGSKSGTSASLAISGLRSEDEADYYCAAWDDSLNGPVFGGGTKLTVL"
measured_result = 1.4

[[record]]
binder = "TPP-26317 (antibody, V domains shown, constant regions not restated) VH: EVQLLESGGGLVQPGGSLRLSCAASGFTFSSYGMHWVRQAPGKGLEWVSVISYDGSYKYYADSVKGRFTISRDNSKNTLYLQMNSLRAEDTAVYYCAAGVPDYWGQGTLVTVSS VL: QSVLTQPPSASGTPGQRVTISCTGSSSNIGAEYDVHWYQQLPGTAPKLLIYSNNERPSGVPDRFSGSKSGTSASLAISGLRSEDEADYYCAAWDDSLNGPVFGGGTKLTVL"
measured_result = 0.9

[[record]]
binder = "TPP-26324 (antibody, V domains shown, constant regions not restated) VH: EVQLLESGGGLVQPGGSLRLSCAASGFTFSSYGMHWVRQAPGKGLEWVSVISYDGSYKYYRDSVKGRFTISRDNSKNTLYLQMNSLRAEDTAVYYCAAGVPDYWGQGTLVTVSS VL: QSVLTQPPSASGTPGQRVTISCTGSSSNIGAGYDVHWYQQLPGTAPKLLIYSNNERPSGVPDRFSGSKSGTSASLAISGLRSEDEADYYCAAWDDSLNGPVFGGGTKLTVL"
measured_result = 1.2

[[record]]
binder = "TPP-26303 (antibody, V domains shown, constant regions not restated) VH: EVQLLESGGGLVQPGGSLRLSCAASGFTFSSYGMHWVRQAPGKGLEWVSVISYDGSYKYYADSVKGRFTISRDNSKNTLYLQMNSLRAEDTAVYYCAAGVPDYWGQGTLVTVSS VL: QSVLTQPPSASGTPGQRVTISCTGSSSNIGAGYDVHWYQQLPGTAPKLLIYSNNERPEGVPDRFSGSKSGTSASLAISGLRSEDEADYYCAAWDDSLNGPVFGGGTKLTVL"
measured_result = 0.65

[[record]]
binder = "TPP-26309 (antibody, V domains shown, constant regions not restated) VH: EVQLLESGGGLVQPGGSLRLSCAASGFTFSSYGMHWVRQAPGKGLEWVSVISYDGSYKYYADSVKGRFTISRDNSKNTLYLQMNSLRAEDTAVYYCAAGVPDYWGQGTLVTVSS VL: QSVLTQPPSASGTPGQRVTISCTGSSSNIGAGYDVHWYQQLPGTAPKLLIYSNNERPSGVPDRFSGSKSGTSASLAISGLRSEDEADYYCAAWDFSLNGPVFGGGTKLTVL"
measured_result = 0.8

[[record]]
binder = "TPP-26299 (antibody, V domains shown, constant regions not restated) VH: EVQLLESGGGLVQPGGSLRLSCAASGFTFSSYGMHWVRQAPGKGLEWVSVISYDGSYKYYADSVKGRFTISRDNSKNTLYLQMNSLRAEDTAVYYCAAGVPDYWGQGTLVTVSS VL: QSVLTQPPSASGTPGQRVTISCTGSSSNIGAGYDVHWYQQLPGTAPKLLIYSNNERPSGVPDRFSGSKSGTSASLAISGLRSEDEADYYCAAWDDSLYGPVFGGGTKLTVL"
measured_result = 0.63


Now for another entry.
Check the records and state Kd for TPP-26300 (antibody, V domains shown, constant regions not restated) VH: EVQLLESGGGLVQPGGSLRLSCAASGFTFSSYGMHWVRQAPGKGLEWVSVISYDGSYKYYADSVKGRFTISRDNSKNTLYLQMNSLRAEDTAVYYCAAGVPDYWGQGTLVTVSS VL: QSVLTQPPSASGTPGQRVTISCTGSSSNIGAGYDVHWYQQLPGTAPKLLIYSNNERPSGVPDRFSGSKSGTSASLAISGLRSEDEADYYCAAWDSSLNGPVFGGGTKLTVL
0.45
